Taken from patent US12606552B2.

DC50: recorded values
- Target Or System: AR (Homo sapiens, UniProt P10275, T878A)
- Sequence (P10275 whole entry T878A): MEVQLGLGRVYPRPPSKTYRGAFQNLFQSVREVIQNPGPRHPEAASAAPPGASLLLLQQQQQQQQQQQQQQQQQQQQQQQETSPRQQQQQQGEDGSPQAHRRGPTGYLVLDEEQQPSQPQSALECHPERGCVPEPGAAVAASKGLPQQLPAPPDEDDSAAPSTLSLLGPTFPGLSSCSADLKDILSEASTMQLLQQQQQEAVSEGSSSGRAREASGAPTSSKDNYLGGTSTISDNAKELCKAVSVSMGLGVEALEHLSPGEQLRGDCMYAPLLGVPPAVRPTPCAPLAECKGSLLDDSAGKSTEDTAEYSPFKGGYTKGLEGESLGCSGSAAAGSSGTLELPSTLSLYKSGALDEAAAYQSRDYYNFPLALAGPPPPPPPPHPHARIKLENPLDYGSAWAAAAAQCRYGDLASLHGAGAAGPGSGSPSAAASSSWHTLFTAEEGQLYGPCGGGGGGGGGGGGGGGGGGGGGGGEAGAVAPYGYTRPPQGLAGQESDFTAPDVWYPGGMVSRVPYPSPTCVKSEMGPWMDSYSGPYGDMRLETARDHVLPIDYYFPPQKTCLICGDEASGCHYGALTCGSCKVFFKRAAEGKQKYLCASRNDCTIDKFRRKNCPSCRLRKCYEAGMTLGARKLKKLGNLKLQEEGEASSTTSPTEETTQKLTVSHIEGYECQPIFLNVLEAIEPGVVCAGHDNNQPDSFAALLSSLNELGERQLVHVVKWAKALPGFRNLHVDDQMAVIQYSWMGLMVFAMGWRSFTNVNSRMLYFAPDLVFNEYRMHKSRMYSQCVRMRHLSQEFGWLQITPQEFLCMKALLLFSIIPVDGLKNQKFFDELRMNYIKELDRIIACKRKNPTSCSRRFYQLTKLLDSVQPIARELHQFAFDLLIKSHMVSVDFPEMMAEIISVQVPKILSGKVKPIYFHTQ
- Protocol Notes: Effects of compounds on AR expression in LNCaP cells (ELISA, DC50)
- Type: cell-based
- Design: Measurement of the Effects of Drugs on the Expression of AR in Cells by ELISA Method; endogenous in cells; host or cells: LNCaP
- Measurement Parameters: 24 hours of drug treatment, AR by ELISA
- Experimental: Activity Assay Example 1: Effects of Compounds on AR Expression in LNCaP Cells 1. Cell Line and Cell Culture Human prostate cancer cells LNCaP (Shanghai Chinese Academy of Sciences Cell Bank). LNCaP was cultured in 1640 medium containing 10% fetal bovine serum. […] 4.6 The reaction wells were added with 100 ul/well of stop solution, mixed well and then the OD450 value was measured with a microplate reader. […]
Measured Property: DC50 (nM)

INSERT INTO assay_data (smiles_record, units_of_measure, reading) VALUES
  ('Cc1ncsc1-c1ccc(CNC(=O)[C@@H]2C[C@@H](O)CN2C(=O)[C@@H](NC(=O)COCCCCOc2ccc(-c3ncc(N4C(=S)N(c5ccc(C#N)c(C(F)(F)F)c5F)C(=O)C4(C)C)cc3F)c(C(F)(F)F)c2)C(C)(C)C)cc1', 'nM', 55),
  ('Cc1ncsc1-c1ccc(CNC(=O)[C@@H]2C[C@@H](O)CN2C(=O)[C@@H](NC(=O)COCCOCCOc2ccc(-c3ccc(N4C(=S)N(c5ccc(C#N)c(C(F)(F)F)c5F)C(=O)C4(C)C)cn3)cc2)C(C)(C)C)cc1', 'nM', 40),
  ('Cc1ncsc1-c1ccc(CNC(=O)[C@@H]2C[C@@H](O)CN2C(=O)[C@@H](OC(=O)COCCCCOc2ccc(-c3ncc(N4C(=S)N(c5ccc(C#N)c(C(F)(F)F)c5F)C(=O)C4(C)C)cc3F)cc2F)C(C)(C)C)cc1', 'nM', 107),
  ('CC(C)(C)[C@H](NC(=O)COCCCCOc1ccc(-c2ncc(N3C(=S)N(c4ccc(C#N)c(C(F)(F)F)c4F)C(=O)C3(C)C)cc2F)c(C(F)(F)F)c1)C(=O)N1C[C@H](O)C[C@H]1c1nc(-c2cccs2)c[nH]1', 'nM', 834);
